Molecular target: T1, A138 iCAPS (CB1 with ICL3 native sequence replaced with protein 1 sequence) (human, UniProt P21554 99-414)
T1 construct: The insert stands inside the chain in place of ICL3
T1 sequence (P21554 whole entry): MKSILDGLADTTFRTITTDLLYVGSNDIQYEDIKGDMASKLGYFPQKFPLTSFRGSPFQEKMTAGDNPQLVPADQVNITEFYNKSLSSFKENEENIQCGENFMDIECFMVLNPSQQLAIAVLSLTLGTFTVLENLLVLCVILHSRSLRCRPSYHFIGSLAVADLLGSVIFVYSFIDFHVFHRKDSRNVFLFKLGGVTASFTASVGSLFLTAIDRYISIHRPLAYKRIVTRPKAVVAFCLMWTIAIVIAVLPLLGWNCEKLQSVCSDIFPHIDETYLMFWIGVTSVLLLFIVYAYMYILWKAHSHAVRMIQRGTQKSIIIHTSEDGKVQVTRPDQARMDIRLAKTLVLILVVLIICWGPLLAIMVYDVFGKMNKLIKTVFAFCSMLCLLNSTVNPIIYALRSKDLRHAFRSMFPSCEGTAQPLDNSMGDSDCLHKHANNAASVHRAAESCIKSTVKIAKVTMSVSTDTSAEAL
Test: ELISA, purified IgG on A138 CB1 iCAPS
Experimental readout: EC50

[[record]]
binder = "PA2LR3-P2B8 (chimeric) (antibody, V domains shown) VH: EVQLQQSGAELVRPGSSVKISCKASGYAFSYYWMNWVKQRPGQGLEWIGQIYPGDGDTNYNGKFKGKATLTADKSSSTAYMQLSSLTSEDSAVYFCARSHGNYFAYWGQGTLVTVSA VL: DIVMTQSPAIMSASLGERVTMTCTASSSISSSYLHWYQQKPGSSPKLWIYSTSNLASGVPARFSGSGSGTSYSLTISSMEAEDAATYYCHQYHRSPLAFGAGTKLELKR"
obs_value = "6.7 nM"

[[record]]
binder = "PA2LR3-P3B10 (chimeric) (antibody, V domains shown) VH: EVQLQQSGAELVRPGSSVKISCKASGYAFSYYWMNWVKQRPGQGLEWIGQIYPGDGDTNYNGKFKGKATLTADKSSSTAYMQLSSLTSEDSAVYFCARSHGNYFPYWGQGTLVTVSA VL: DIVITQSPAIVSASLGERVTMTCTASSSVSSSYLHWYQQKPGSSPKLWIYSTSNLASGVPARFSGSGSGTSYSLTISSMEAEDAATYYCQQWSSYPLTFGAGTKLEIKR"
obs_value = "1.4 nM"

[[record]]
binder = "PA2LR3-P3B8 (chimeric) (antibody, V domains shown) VH: EVQLQQSGAELVRPGSSVKISCKASGFAFSNYWMNWVKQRPGQGLEWIGQIYPGDGDTNFNGKFKGRAILTADISSNTAYMQLSSLTSEDSAVYFCARSHGNYFPYWGQGTLVTVSA VL: DIVMTQSPAIMSASLGERVTMTCTASSSVSSSYLHWYQQKPGSSPKLWIYGTSNLASGVPVRFSGSGSGTSYSLTISSMEAEDAATYYCQQWSSYPLTFGAGTKLELKR"
obs_value = "71 nM"

[[record]]
binder = "PA2LR3-P2E5 (chimeric) (antibody, V domains shown) VH: EVQLQQSGAELVRPGSSVKISCKASGYAFRDYWMNWVKQRPGQGLEWIGQIYPGDGATNYIGKFKGKATLTADKSSSTAYMQLSSLTSEDSAVYFCARSHGNYFPYWGHGTLVTVSA VL: QIVLTQSPAIMSASLGERVTMTCTASSSVSSSYLHWYQQKPGSSPKLWIYSTSNLASGVPARFSGSGSGTSYSLTISSMEAEDAATYYCQQWSSYPLTFGAGTKLELKR"
obs_value = "10 nM"

[[record]]
binder = "PA2LR3-P4B1 (chimeric) (antibody, human IgG1, kappa, V domains shown) VH: EVQLQQSGAELVRPGSSVKISCKASGFAFSNYWMNWVKQRPGQGLEWIGQIYPGDGDTNFNGKFKGRAILTADISSNTAYMQLSSLTSEDSAVYFCARSHGNYFPYWGQGTLVTVSA VL: QIVLTQSPAIMSASLGERVTMTCTASSSVSSSYLHWYQQKPGSSPKLWIYSTSNLASGVPARFSGSGSGTSYSLTISSMEAEDAATYYCHQYHRSPLTFGAGTKLELKR"
obs_value = "1.28 nM"

